assayText: in vivo
conditionSummary: female, mouse, plasma, iv, 1 mg/kg

molecule | concentration at 1 h, ng/mL
CC[C@@H]([C@H](C)OP(=O)(O)O)n1ncn(-c2ccc(N3CCN(c4ccc(OC[C@@H]5CO[C@@](Cn6cncn6)(c6ccc(F)cc6F)C5)cc4)CC3)cc2)c1=O [Example 1, Posaconazole Phosphate Monocholinate] | 7630

----------
The entries below are paired with their reported Content.
assayText: Stability experiments under 25° C.±2° C. and 65% R.H±5% R.H
conditionSummary: month 12; 25° C./65% R.H
Text: • 1. […] The results are shown in detail in the following table.

compound | Content (%)
CC[C@@H]([C@H](C)OP(=O)(O)O)n1ncn(-c2ccc(N3CCN(c4ccc(OC[C@@H]5CO[C@@](Cn6cncn6)(c6ccc(F)cc6F)C5)cc4)CC3)cc2)c1=O.CNC[C@H](O)[C@@H](O)[C@H](O)[C@H](O)CO | 99.50
CCC(C(C)OP(=O)([O-])[O-])n1ncn(-c2ccc(N3CCN(c4ccc(OCC5COC(Cn6cncn6)(c6ccc(F)cc6F)C5)cc4)CC3)cc2)c1=O.C[N+](C)(C)CCO.C[N+](C)(C)CCO.O.O.O.O.O (stereo not drawn) | 99.71
CC[C@@H]([C@H](C)OP(=O)(O)O)n1ncn(-c2ccc(N3CCN(c4ccc(OC[C@@H]5CO[C@@](Cn6cncn6)(c6ccc(F)cc6F)C5)cc4)CC3)cc2)c1=O [Example 1, Posaconazole Phosphate Monocholinate] | 99.84
